Listing: viability at 100 µM of selected compounds
Tested on: HUVEC
assay: Antiischemic activity against hypoxia/reoxygenation-induced cell injury in HUVEC assessed as cell viability at 100 uM by MTT assay
Assay type: functional
assayContext: Homo sapiens, read-out: Activity
Note: unit % is implicit; provide only the numeric part.

Some compounds with recorded viability at 100 µM:
Give the measured viability at 100 µM of C[C@@H](CC[C@@]1(O)O[C@H]2C[C@H]3[C@@H]4CC=C5C[C@@H](O[C@@H]6O[C@H](CO)[C@@H](O)[C@H](O[C@@H]7O[C@H](CO)[C@@H](O)[C@H](O)[C@H]7O)[C@H]6O[C@@H]6O[C@@H](C)[C@H](O)[C@@H](O)[C@H]6O)CC[C@]5(C)[C@H]4CC[C@]3(C)[C@H]2[C@@H]1C)CO[C@@H]1O[C@H](CO)[C@@H](O)[C@H](O)[C@H]1O .
68

Cool, now C[C@@H](CC[C@@]1(O)O[C@H]2C[C@H]3[C@@H]4CC=C5C[C@@H](O[C@@H]6O[C@H](CO)[C@@H](O[C@@H]7O[C@@H](C)[C@H](O[C@@H]8O[C@@H](C)[C@H](O)[C@@H](O)[C@H]8O)[C@@H](O)[C@H]7O)[C@H](O)[C@H]6O[C@@H]6O[C@@H](C)[C@H](O)[C@@H](O)[C@H]6O)CC[C@]5(C)[C@H]4CC[C@]3(C)[C@H]2[C@@H]1C)CO[C@@H]1O[C@H](CO)[C@@H](O)[C@H](O)[C@H]1O
62.8

Cool, now C[C@@H](CC[C@@]1(O)O[C@H]2C[C@H]3[C@@H]4CC=C5C[C@@H](O[C@@H]6O[C@H](CO)[C@@H](O[C@@H]7O[C@@H](C)[C@H](O)[C@@H](O)[C@H]7O)[C@H](O)[C@H]6O[C@@H]6O[C@@H](C)[C@H](O)[C@@H](O)[C@H]6O)C(=O)C[C@]5(C)[C@H]4CC[C@]3(C)[C@H]2[C@@H]1C)CO[C@@H]1O[C@H](CO)[C@@H](O)[C@H](O)[C@H]1O
74.8

Further cases:
Give the measured viability at 100 µM of C[C@@H](CC[C@@]1(O)O[C@H]2C[C@H]3[C@@H]4CC=C5C[C@@H](O[C@@H]6O[C@H](CO)[C@@H](O)[C@H](O)[C@H]6O[C@@H]6O[C@@H](C)[C@H](O[C@@H]7O[C@@H](C)[C@H](O)[C@@H](O)[C@H]7O)[C@@H](O)[C@H]6O)C(=O)C[C@]5(C)[C@H]4CC[C@]3(C)[C@H]2[C@@H]1C)CO[C@@H]1O[C@H](CO)[C@@H](O)[C@H](O)[C@H]1O .
69.5

Ref: ChEMBL document CHEMBL1165995
